// reported inhibition for each item listed
- Assay summary: growth inhibition of yeast control strain, primary screen, counter-screen for post-Golgi transport modulator project (AID 738)
- Measurement setup: efflux-deficient yeast background strain, growth absorbance A615, 16 h; at 10 µM; stronger effect = higher value
Out of some 98,000 compounds screened, about 4,900 (5%) were called active. Only a selection was taken, and actives are over-represented in it overall.

Compound string	inhibition (%)
CCCCSc1[nH]c(=O)c(C(=O)OCC)cc1C#N	-5.6
Cc1ccc(-n2c(C)cc(/C=N/Nc3ccc([N+](=O)[O-])cn3)c2C)c(C)c1	3.3
CC(=O)c1cc2c(cc1NC(=O)CN1CCCCCC1)OCO2	5.16
Cc1ccc(SCC2=NNC(=O)C2)cc1	-3.86
COc1ccccc1NC(=O)[C@H](COCc1ccccc1)NC(=O)OC(C)(C)C	5.88
Cc1ccc(C(=O)NC2CCN(C(=O)N3CCOCC3)CC2)cc1	7.51

* * *

- Assay summary: growth inhibition of yeast control strain, primary screen, counter-screen for post-Golgi transport modulator project (AID 738)
- Measurement setup: efflux-deficient yeast background strain, growth absorbance A615, 16 h; at 10 µM; stronger effect = higher value
Screen size: about 98,000 compounds; about 4,900 (5%) were called active. Shown is part of a subset that was picked to be rich in actives.
Reported inhibition values are given for each entry in this list.

Compound string	inhibition, %
CCN(CC)S(=O)(=O)c1ccc2nc(COC(=O)c3n[nH]c4ccccc34)[nH]c2c1	7.74
COc1ccc(COC(=O)c2n[nH]c3ccccc23)cc1F	37.5
O=C(COC(=O)c1n[nH]c2ccccc12)NCc1ccccc1	4.29
Cc1ccc2c(c1)c1ncnc(N3CCc4ccccc4C3)c1n2C	30
Cc1ccc(-c2noc(CSc3nnc(-c4ccccc4)n3C)n2)cc1	22.3
COc1cccc(CNCCc2c[nH]c3ccccc23)c1OCc1ccccc1F	15.9
Cc1ccc2c(c1)c1ncn(CCC3=CCCCC3)c(=O)c1n2C	21.9
COc1ccccc1N1CCN(C(=O)c2cc(-c3ccc(Cl)c(Cl)c3)on2)CC1	2.68
COc1ccccc1N1CCN(C(=O)c2cc(-c3ccc(Br)cc3)on2)CC1	33.2
COc1ccccc1-c1cc(C(=O)N2CCCCC2)no1	13.9
Cc1ccc(S(=O)(=O)Nc2nc3ccccc3nc2N2CCc3ccccc3C2)cc1	19.2

* * *

- Assay summary: growth inhibition of yeast control strain, primary screen, counter-screen for post-Golgi transport modulator project (AID 738)
- Measurement setup: efflux-deficient yeast background strain, growth absorbance A615, 16 h; at 10 µM; stronger effect = higher value
About 4,900 (5%) of roughly 98,000 compounds were called active. Only a selection was taken, and actives are over-represented in it overall.
Readout: inhibition (%)

Compound string	Unit symbol	Reported measurement
O=C(COc1ccccc1F)NC1CC1	%	-0.64
O=C(COc1ccc(Br)cc1F)NC1CCN(Cc2ccccc2)CC1	%	37.7
Cc1ccccc1-c1nnc(SCC(=O)NCc2ccc3c(c2)OCO3)n1C	%	12.7
COc1ccc(NC(=O)COC(=O)Cn2c(C)nc3ccccc32)cc1OC	%	1.03
Cn1cccc1C(=O)NC(=O)COC(=O)Cc1coc2ccc3ccccc3c12	%	33
Cc1nnc(NC(=O)Nc2ccc(Cl)c(Cl)c2)s1	%	3.53
CN1CCN(S(=O)(=O)c2ccc(N3CCN(S(=O)(=O)c4cccs4)CC3)nc2)CC1	%	4.14
CCNC(=S)Nc1cccc(Cl)c1C	%	3.81
FC(F)(F)c1cc(-c2ccco2)nc(NCc2ccc(Cl)cc2)n1	%	25.8
N/C(=N\OC(=O)Nc1ccc(Cl)c(Cl)c1)c1ncc(C(F)(F)F)cc1Cl	%	13.3
Cn1c(SCc2nc3ccccc3s2)nnc1-c1ccc2c(c1)OCO2	%	33.8
CC(C)(C)NC(=O)NC(=O)COC(=O)Cn1c(C(F)(F)F)nc2ccccc21	%	2.81
O=C(CN1C(=O)NC2(CCCC2)C1=O)Nc1ccc(F)c(F)c1F	%	3.79
COc1ccccc1CNC(=O)c1ccc(SC)cc1OC	%	17.5
O=C(CSc1nnc(-c2ccccc2)o1)N1CCOCC1	%	7.42
Cc1oc(-c2ccccc2F)nc1CS(=O)(=O)CC(=O)NCCCN(C)C1CCCCC1	%	13.5
Cc1ccc(S(=O)(=O)N(CC(=O)N/N=C/c2ccc(F)cc2)c2cccc3cccnc23)cc1	%	6.82
O=C(NC1CCN(Cc2ccccc2)CC1)c1ccccc1F	%	6.56
CC1=CC(C)(C)N(C(=O)CSc2nnc(-c3ccccc3)o2)c2ccc(C)cc21	%	72.6
COc1ccc(C(=O)NNC(=O)c2cnccn2)cc1[N+](=O)[O-]	%	7.69
Cc1cccc(CSc2nnc(Cn3c(=O)sc4ccccc43)n2C)c1	%	13.1
O=C(CC(O)(C(F)(F)F)C(F)(F)F)Nc1ccc(Cl)c(Cl)c1	%	96.9
Cc1ccccc1-c1nc(CS(=O)(=O)CC(=O)N2CCc3ccccc3C2)c(C)o1	%	30.9

* * *

- Assay summary: growth inhibition of yeast control strain, primary screen, counter-screen for post-Golgi transport modulator project (AID 738)
- Measurement setup: efflux-deficient yeast background strain, growth absorbance A615, 16 h; at 10 µM
About 4,900 (5%) of roughly 98,000 compounds were called active. Cut-off read from the data, not from the text of the source: active = inhibition above about 30%; inactive = the rest. For the sample, actives were picked, then their nearest neighbours and some compounds at random.
Outcomes: true (active), false (inactive)

Compound	Group label
CCCN(CCC)CCNC(=O)c1cc2c(C)nc3ccccc3c2o1	false
CC(=O)c1sc(NC(=O)c2cccc3ccccc23)nc1C	false
Cc1ccc(C(=O)OC2=CC(=O)CC(C)(C)C2)cc1	false
CCOC(=O)c1[nH]c2ccc(C)cc2c1N=C(C)N(C)C	true
Cn1cc(S(=O)(=O)N2CCN(c3ccc(F)cc3)CC2)c(=O)n(C)c1=O	false
CCc1nc(Nc2ccc3nccnc3c2)c2oc3ccccc3c2n1	false
CCOC(=O)c1[nH]c2ccccc2c1N=C(C)N(CC)CC	false
Cn1cc(S(=O)(=O)N2CCC(Cc3ccccc3)CC2)c(=O)n(C)c1=O	false
CCC(C)n1c(-c2cc(OC)c(OC)c(OC)c2)nc2nc3ccccc3nc21 (centres undefined)	true
Nc1ccc(-c2sc(N)nc2-c2ccccc2)cc1	false
CC(C)c1ccc(Nc2ncccc2C#N)cc1	false
COc1cc(OC)c(NC(=O)c2ccc(Br)o2)cc1Cl	false
COc1ccc(-c2nc(CS(=O)CC(=O)N3CCc4ccccc4C3)c(C)o2)cc1 (centres undefined)	false
Cc1nc2ccccc2c2oc(C(=O)NCCCN3CCC(C)CC3)cc12	true
O=S(=O)(/N=C(/Nc1ccccn1)c1ccccc1)c1ccc(Cl)cc1	false
Cc1nc(Cl)c2oc3ccccc3c2n1	false
O=C(Nc1cccc2ncccc12)c1ccc(-c2ccc(Cl)cc2Cl)o1	true
c1ccc2c(CSCc3nc4ccccc4[nH]3)cccc2c1	false
CCCc1nc2ccccc2c(C(=O)OCC(=O)c2ccc3c(c2)NC(=O)CO3)c1CC	false
CCOC(=O)c1cc2cc(C)ccc2[nH]1	false
CN1CCN(c2ccc([N+](=O)[O-])c(Sc3nc4ccccc4[nH]3)c2)CC1	false
Cc1occc1C(=O)NNC(=S)NCC(C)C	false
C=CCOc1c2ccc(C(=O)N(CC)c3ccc(OC)cc3)cc2nn1C	false
O=C(Nc1ccc(-n2ccnc2P(=O)(O)c2ccccc2)cc1)c1ccccc1Br	false

* * *

// reported inhibition per item
- Assay summary: growth inhibition of yeast control strain, primary screen, counter-screen for post-Golgi transport modulator project (AID 738)
- Measurement setup: efflux-deficient yeast background strain, growth absorbance A615, 16 h; at 10 µM; stronger effect = higher value
The whole screen tested about 98,000 compounds, of which about 4,900 (5%) were called active. The list comes from a sample in which actives are over-represented; it also holds close analogues and randomly drawn compounds.

Compound	Unit symbol	inhibition
Cn1c(=O)c(C(=O)Nc2ncccn2)c(O)c2ccccc21	%	44.2
C=CCNc1cnn(-c2ccc(C)cc2)c(=O)c1Cl	%	8.21
O=C(Nc1ccc(Cl)cc1)N1CCc2[nH]c3ccccc3c2C1	%	36.5
CCCn1c(SCC(=O)Nc2c(C)cccc2C)nnc1C(C)C	%	-4.88
CCOc1[nH]n(-c2ccc(Cl)cc2)c(=O)c1C=Nc1ccc(O)cc1	%	1.52
CCN(CC)c1ccc(/C=N/Nc2nc(C)cc(=O)[nH]2)cc1	%	-2.13
COc1ccccc1NC(=S)NC(=O)C(C)C	%	12.3
CCOc1ccc(N=C2SC(C(=O)O)CC(=O)N2C)cc1 (configuration not stated)	%	-1.43
CCCn1c(SCC(=O)c2ccc3c(c2)OCCO3)nnc1C(C)C	%	43.7
CCOc1cc(C(=O)Nc2ncccn2)cc(OCC)c1OCC	%	-2.73
O=C(NC1CCCCC1)N1CCc2[nH]c3ccccc3c2C1	%	-9.69
N#Cc1ccc(-c2ccc(F)cc2)nc1Sc1ccccc1	%	8.35

* * *

Below: a set of entries, each annotated with reported inhibition.
- Assay summary: growth inhibition of yeast control strain, primary screen, counter-screen for post-Golgi transport modulator project (AID 738)
- Measurement setup: efflux-deficient yeast background strain, growth absorbance A615, 16 h; at 10 µM; stronger effect = higher value
Screen size: about 98,000 compounds; about 4,900 (5%) were called active. The sample holds actives, similar compounds and a random draw of the others, so the mix is not that of the screen.

Compound	inhibition
COc1ccc(/C(O)=C2\C(=O)C(=O)N(Cc3ccco3)C2c2ccc(OC)cc2OC)cc1 (stereo not given)	-3.5% (inactive)
Cc1cc(C)c2c(-n3cccc3)c(C(=O)NNS(=O)(=O)c3ccc(F)cc3)sc2n1	4.13% (inactive)
CCOc1cc(CNCCN(C)C)c(Cl)cc1OCC(=O)NCCc1ccccc1	7.63% (inactive)
COc1ccc(C(=O)N2CCc3cc(OC)c(OC)cc3C2c2cccc([N+](=O)[O-])c2)cc1 (stereo not given)	20% (inactive)
CN(C)/C=C(\C#N)C(=O)c1cccnc1Oc1ccc(F)cc1F	2.7% (inactive)
Cc1ccc(S(=O)(=O)NCC(=O)N2CCN(c3ccccn3)CC2)cc1	2.13% (inactive)
CC(Oc1ccc(F)cc1F)C(=O)/C=C/N(C)C (stereo not given)	-1.04% (inactive)
Cc1nn(C)c(Oc2ccccc2)c1CCNS(=O)(=O)c1ccc(F)cc1	-2.45% (inactive)
CC(=O)NS(=O)(=O)c1ccc(NC(=O)/C=C/c2ccccc2Cl)cc1	4.99% (inactive)
CN(C)/C=C/C(=O)c1ccccc1F	36.4% (active)
